Reference source: patent US9789098B2

Protocol Summary: clinical
Run Parameters: human, in vivo, po
Readout Name: Tmax (h)
Reply with just the number (in h).

Report Tmax for NCC(CC(=O)O)c1ccc(Cl)cc1 (racemic) [baclofen, Baclofen] please.
1.5
